The reader will find reported Population Membrane Permeable-Phenotype (%) values listed item by item below.
Tested on: Fibroblast
method: Multiplex assay against human fibroblast
Type: toxicity, cell-based
condition_parameters: 12 h, 10 µM, compound concentration 10 uM, replicate 2
Answer with a number only, understood to be in %.

Take a look at these entries with their results.
• Cc1ccc(F)cc1C(=O)Nc1ccc(C(=O)N2Cc3cccn3Cc3ccccc32)c(Cl)c1 [LIXIVAPTAN] = 6
• CCNC1(C(N)=O)CCN(c2ncnc3c2nc(-c2ccccc2Cl)n3-c2ccc(Cl)cc2)CC1 [OTENABANT] = 12
• CCOc1c2c(c(OCC)c3ncccc13)CN(c1ccc(CS(=O)(=O)NC(=O)Cc3ccccc3OC)cc1C)C2=O = 7
• O=C(NCC(=O)N1CC[C@H](N[C@H]2CC[C@@](O)(c3ccc(-c4ncccn4)cn3)CC2)C1)c1cccc(C(F)(F)F)c1 [PF-4136309] = 4
• Cc1nc2ccc(Oc3ccc(F)cc3)cc2c(=O)n1C[C@H]1CCCN(C(C)C)C1.Cl = 5

QUERY: Fill in Population Membrane Permeable-Phenotype (%) for O=C(O)c1cc2ccccc2c(Cc2c(O)c(C(=O)O)cc3ccccc23)c1O [PAMOIC ACID] tested with Fibroblast.
RESULT: 3

QUERY: System Fibroblast. Read-out Population Membrane Permeable-Phenotype (%). Item `CN(C)c1ccnc2sc3c(=O)n(N4CCCCCC4)cnc3c12` . Report value.
RESULT: 12
